Source of measurements: patent US6521623B1

Biological target: D4 human receptors (Homo sapiens, UniProt P21917)
Construct: expressed in transfected cells; host or cells: CHO cells
Sequence (P21917 1-419): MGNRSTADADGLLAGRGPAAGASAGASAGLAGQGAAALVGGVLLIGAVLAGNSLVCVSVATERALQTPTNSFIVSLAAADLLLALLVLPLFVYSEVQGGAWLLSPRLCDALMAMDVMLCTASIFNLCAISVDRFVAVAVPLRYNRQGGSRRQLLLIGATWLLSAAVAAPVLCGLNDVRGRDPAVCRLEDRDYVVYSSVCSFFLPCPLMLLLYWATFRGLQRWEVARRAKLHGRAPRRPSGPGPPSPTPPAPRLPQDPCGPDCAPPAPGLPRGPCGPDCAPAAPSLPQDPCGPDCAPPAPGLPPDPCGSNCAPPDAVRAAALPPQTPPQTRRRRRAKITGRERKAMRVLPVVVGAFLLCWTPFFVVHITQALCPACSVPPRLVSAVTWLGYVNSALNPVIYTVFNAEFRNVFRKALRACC
Assay: D4 Radioligand Receptor Binding Assay ([3H] YM-09151-2, CHO cell membranes)
Conditions: compound 10^−7 M, singlicate, [3H] YM-09151-2 0.15-0.25 nM
Protocol: D4 Radioligand Receptor Binding Assay Membranes from CHO cells expressing D4 human receptors, were suspended in incubation buffer. Binding assays were performed in MultiProbe 204 pipetting system (Packard), according to a predetermined mapping, consistent with the software Screen. […] Non-specific binding was determined in the presence of clozapine dissolved in DMSO to a final concentration of 10^−5 M. […]
Field: D4 Receptor Binding Assay % inhibition (10^−7 M). Provide a value for each of the compounds that follow.
// note: answer is a bare numeric in %

[in] Provide one value: measured D4 Receptor Binding Assay % inhibition (10^−7 M) of O=c1n(C/C=C/CN2CCN(c3ccccc3)CC2)c2ccccc2n1CCO [Compound 378]
[out] 35

[in] Provide one value: measured D4 Receptor Binding Assay % inhibition (10^−7 M) of CS(=O)(=O)NCCn1c(=O)n(C/C=C\CN2CCN(c3ccc(Cl)c(Cl)c3)CC2)c2ccccc21 [Compound 505]
[out] 58

[in] Provide one value: measured D4 Receptor Binding Assay % inhibition (10^−7 M) of CS(=O)(=O)NCCn1c(=O)n(C/C=C/CN2CCN(c3ccc(Cl)c(Cl)c3)CC2)c2ccccc21 [Compound 527]
[out] 36

[in] Provide one value: measured D4 Receptor Binding Assay % inhibition (10^−7 M) of CCNC(=O)OCCn1c(=O)n(CCCCN2CCN(c3ccccc3Cl)CC2)c2ccccc21 [Compound 96]
[out] 72

[in] Provide one value: measured D4 Receptor Binding Assay % inhibition (10^−7 M) of COc1ccccc1N1CCN(CCn2c(=O)n(CCN3CCCCC3)c3ccccc32)CC1 [Compound 159]
[out] 50

[in] Provide one value: measured D4 Receptor Binding Assay % inhibition (10^−7 M) of COc1ccccc1N1CCN(CCCCn2c(=O)n(CCN3CCCCC3)c3ccccc32)CC1 [Compound 38]
[out] 78

[in] Provide one value: measured D4 Receptor Binding Assay % inhibition (10^−7 M) of CCNC(=O)OCCn1c(=O)n(CCCCN2CCN(c3ccccc3OC)CC2)c2ccccc21 [Compound 93]
[out] 62

[in] Provide one value: measured D4 Receptor Binding Assay % inhibition (10^−7 M) of O=c1n(CCCCN2CCN(c3cccc(C(F)(F)F)c3)CC2)c2ccccc2n1CCN1CCCCC1 [Compound 28]
[out] 35

[in] Provide one value: measured D4 Receptor Binding Assay % inhibition (10^−7 M) of O=c1n(CCCCN2CCN(c3ccccc3)CC2)c2ccccc2n1CCN1CCOCC1 [Compound 39]
[out] 42

[in] Provide one value: measured D4 Receptor Binding Assay % inhibition (10^−7 M) of O=c1n(C/C=C/CN2CCN(c3cccc(Cl)c3)CC2)c2ccccc2n1CCN1CCCCC1 [Compound 331]
[out] 92

[in] Provide one value: measured D4 Receptor Binding Assay % inhibition (10^−7 M) of COCCn1c(=O)n(CCCCN2CCN(c3ccccc3)CC2)c2ccccc21 [Compound 1]
[out] 38

[in] Provide one value: measured D4 Receptor Binding Assay % inhibition (10^−7 M) of COCCn1c(=O)n(CCCCN2CC=C(c3ccccc3)CC2)c2ccccc21 [Compound 10]
[out] 47

[in] Provide one value: measured D4 Receptor Binding Assay % inhibition (10^−7 M) of O=c1n(CCO)c2ccccc2n1CCCCN1CCN(c2ccc(Cl)c(Cl)c2)CC1 [Compound 66]
[out] 99

[in] Provide one value: measured D4 Receptor Binding Assay % inhibition (10^−7 M) of CCNC(=O)OCCn1c(=O)n(CCCCN2CC=C(c3ccccc3)CC2)c2ccccc21 [Compound 84]
[out] 42

[in] Provide one value: measured D4 Receptor Binding Assay % inhibition (10^−7 M) of O=c1n(C/C=C\CN2CCN(c3ccccc3)CC2)c2ccccc2n1CCO [Compound 361]
[out] 46

[in] Provide one value: measured D4 Receptor Binding Assay % inhibition (10^−7 M) of CC(=O)NCCn1c(=O)n(CCCCN2CCN(c3ccccc3Cl)CC2)c2ccccc21 [Compound 118]
[out] 36

[in] Provide one value: measured D4 Receptor Binding Assay % inhibition (10^−7 M) of O=c1n(C/C=C\CN2CCN(c3ccccn3)CC2)c2ccccc2n1CCO [Compound 364]
[out] 36

[in] Provide one value: measured D4 Receptor Binding Assay % inhibition (10^−7 M) of O=c1n(CCO)c2ccccc2n1CCN1CCN(c2ccccn2)CC1 [Compound 182]
[out] 45

[in] Provide one value: measured D4 Receptor Binding Assay % inhibition (10^−7 M) of CCNC(=O)OCCn1c(=O)n(CCCCN2CCN(c3ccc(Cl)c(Cl)c3)CC2)c2ccccc21 [Compound 85]
[out] 79

[in] Provide one value: measured D4 Receptor Binding Assay % inhibition (10^−7 M) of O=c1n(C/C=C/CN2CCN(c3ncccn3)CC2)c2ccccc2n1CCN1CCCCC1 [Compound 332]
[out] 85

[in] Provide one value: measured D4 Receptor Binding Assay % inhibition (10^−7 M) of COCCn1c(=O)n(CCCCN2CCN(c3ccc(Cl)c(Cl)c3)CC2)c2ccccc21 [Compound 11]
[out] 90

[in] Provide one value: measured D4 Receptor Binding Assay % inhibition (10^−7 M) of O=c1n(CCO)c2ccccc2n1CCN1CCN(c2ccc(Cl)c(Cl)c2)CC1 [Compound 189]
[out] 99

[in] Provide one value: measured D4 Receptor Binding Assay % inhibition (10^−7 M) of O=c1n(CCCCN2CCN(c3cccc(Cl)c3)CC2)c2ccccc2n1CCN1CCOCC1 [Compound 43]
[out] 55

[in] Provide one value: measured D4 Receptor Binding Assay % inhibition (10^−7 M) of CCNC(=O)OCCn1c(=O)n(CCN2CCN(c3ccccc3OC)CC2)c2ccccc21 [Compound 216]
[out] 44

[in] Provide one value: measured D4 Receptor Binding Assay % inhibition (10^−7 M) of O=c1n(C/C=C\CN2CCN(c3ccc(Cl)c(Cl)c3)CC2)c2ccccc2n1CCO [Compound 371]
[out] 95

[in] Provide one value: measured D4 Receptor Binding Assay % inhibition (10^−7 M) of CCNC(=O)OCCn1c(=O)n(CCCCN2CCN(c3ccccc3)CC2)c2ccccc21 [Compound 75]
[out] 54

[in] Provide one value: measured D4 Receptor Binding Assay % inhibition (10^−7 M) of CCNC(=O)OCCn1c(=O)n(CCCCN2CCN(c3cccc(C)c3C)CC2)c2ccccc21 [Compound 92]
[out] 55

[in] Provide one value: measured D4 Receptor Binding Assay % inhibition (10^−7 M) of O=c1n(CCCCN2CCN(c3ccccn3)CC2)c2ccccc2n1CCN1CCCCC1 [Compound 23]
[out] 48
